Hello, the source for this data is patent US20240067740A1, in case you need it.

- System Tested: T1, cynomolgus TNFR2 (Macaca fascicularis, UniProt P20333 23-461 (human entry))
- T1 construct: Stably overexpressed on HEK293T cells; also called cynoTNFR2
- T1 chain: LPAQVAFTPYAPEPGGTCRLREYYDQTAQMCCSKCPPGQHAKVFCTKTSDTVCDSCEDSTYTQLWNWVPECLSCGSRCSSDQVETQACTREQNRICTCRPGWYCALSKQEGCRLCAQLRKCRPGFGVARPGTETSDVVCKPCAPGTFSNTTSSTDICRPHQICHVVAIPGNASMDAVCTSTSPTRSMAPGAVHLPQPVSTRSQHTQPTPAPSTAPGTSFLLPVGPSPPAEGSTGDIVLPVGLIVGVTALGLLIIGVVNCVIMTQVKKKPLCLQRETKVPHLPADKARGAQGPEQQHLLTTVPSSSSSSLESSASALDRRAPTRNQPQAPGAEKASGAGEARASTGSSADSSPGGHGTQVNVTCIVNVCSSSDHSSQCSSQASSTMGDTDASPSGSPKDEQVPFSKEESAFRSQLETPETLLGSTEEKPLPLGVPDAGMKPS
- Test Details: flow cytometry on HEK293T cells stably overexpressing cynomolgus TNFR2
Assay Metric: binding result

>>> result("R2_mAb-5 (antibody, V domains shown, also called R2-5) VH: QVQLVQSGAEVKKPGASVTVSCKASGYTFSTYGIIWVRQAPGQGLEWMGWISAFNGNANSAQKLQDRVTMTTDTSTSTAYMELRSLRSDDTAVYYCARGEDFFDYWGQGTLVTVSS VL: DIVMTQTPLSSPVTLGQPASISCRSSQSLVHSDGNTYLSWLQQRPGQPPRLLIYKVSSRFSGVPDRFSGSGAGTDFTLKISRVEAEDVGVYYCTQSTQFPFTFGRGTKLEIK")
"binds"
